Examples of compounds with documented Fraction of radioligand in DPBS at 25° C., 2 h follow.
assay: Product stability in DPBS at 25° C.; type: physicochemical; conditions: DPBS (+Ca2+, +Mg2+), 2 h, mean ± SD, normalized to fraction immediately after preparation
Measured Parameter: Fraction of radioligand in DPBS at 25° C., 2 h (%)

Compound	Scale Unit	Val
CC1(C)CN(CCCCC(=O)N[C@@H](CCCCNC(=O)CCCCCCC(=O)NCCCC[C@H](NC(=O)N[C@@H](CCC(=O)O)C(=O)O)C(=O)O)C(=O)O)CC[N]2CC(C)(C)[S][99Tc]2(=[O])[S]1 (some centres unmarked) [[^99mTc]TcO-3]	%	97.3
CC1(C)CN(CCCCC(=O)N[C@@H](Cc2ccccc2)C(=O)N[C@@H](Cc2ccccc2)C(=O)N[C@@H](CCCCNC(=O)CCCCCCC(=O)NCCCC[C@H](NC(=O)N[C@@H](CCC(=O)O)C(=O)O)C(=O)O)C(=O)O)CC[N]2CC(C)(C)[S][99Tc]2(=[O])[S]1 (some centres unmarked) [[^99mTc]TcO-1]	%	99.5
